System: Erythrocyte
Experiment: Hemolytic activity against mouse red blood cells incubated for 1 hr
Format: toxicity, cell-based
Numbered stars: 1 amine (or outer) side, 2 acyl side, 3 side chain; on linkers, the order of the positions; unused ones are H or OH. Square brackets hold non-standard residues; d marks the D form. Peptide text beside a SMILES is read from it. * marks the point of attachment. X15 = NC(=O)CN(C[C@H](Cc1ccccc1)N*)S(=O)(=O)c1ccc(I)cc1; X3 = N[C@@H](Cc1ccccc1)CN(CC(=O)[*:2])[*:1]; X4 = O=S(=O)(c1cccc(Cl)c1)*
Let's look at some compounds and their measured MHC.
Value Type: MHC (µg/mL)

compound="CC(C)C[C@H](NC(=O)[C@H](CC(C)C)NC(=O)[C@H](CCCCN)NC(=O)[C@H](CC(C)C)NC(=O)[C@@H](N)Cc1ccccc1)C(=O)N[C@@H](CCCCN)C(=O)N[C@@H](CCCCN)C(=O)N[C@@H](Cc1ccccc1)CN(CC(N)=O)S(=O)(=O)c1ccc(I)cc1 (H-FLKLLKK-X15)" subject_of_test=Erythrocyte unit_string=µg/mL recorded_number=128
compound="CC(C)C[C@H](NC(=O)[C@H](CC(C)C)NC(=O)[C@H](CCCCN)NC(=O)[C@H](CCCCN)NC(=O)[C@H](CC(C)C)NC(=O)[C@H](CC(C)C)NC(=O)[C@H](CCCCN)NC(=O)CN(C[C@@H](N)Cc1ccccc1)S(=O)(=O)c1cccc(Cl)c1)C(N)=O (X4-[X3]KLLKKLL-NH2)" subject_of_test=Erythrocyte unit_string=µg/mL recorded_number=128

###

Test system: Erythrocyte
Experiment: Hemolytic activity against mouse red blood cells incubated for 1 hr
Format: toxicity, cell-based
Numbered stars: 1 amine (or outer) side, 2 acyl side, 3 side chain; on linkers, the order of the positions; unused ones are H or OH. Square brackets hold non-standard residues; d marks the D form. Peptide text beside a SMILES is read from it. * marks the point of attachment. X14 = CC(C)C[C@@H](CN(CC(N)=O)S(=O)(=O)c1c(C(C)C)cc(C(C)C)cc1C(C)C)N*; X2 = CC(C)C[C@H](N)CN(CC(=O)[*:2])[*:1]; X10 = O=[N+]([O-])c1ccc(S(=O)(=O)*)cc1
Let's look at some compounds and their measured MHC.
Value Type: MHC (µg/mL)

compound="CC(C)C[C@@H](CN(CC(N)=O)S(=O)(=O)c1c(C(C)C)cc(C(C)C)cc1C(C)C)NC(=O)[C@H](CCCCN)NC(=O)[C@H](CCCCN)NC(=O)[C@H](CC(C)C)NC(=O)[C@H](CC(C)C)NC(=O)[C@H](CCCCN)NC(=O)[C@H](CC(C)C)NC(=O)[C@@H](N)Cc1ccccc1 (H-FLKLLKK-X14)" value_type=MHC unit_string=µg/mL recorded_number=32
compound="CC(C)C[C@H](N)CN(CC(=O)N[C@@H](CCCCN)C(=O)N[C@@H](CC(C)C)C(=O)N[C@@H](CC(C)C)C(=O)N[C@@H](CCCCN)C(=O)N[C@@H](CCCCN)C(=O)N[C@@H](CC(C)C)C(=O)N[C@@H](CC(C)C)C(N)=O)S(=O)(=O)c1ccc([N+](=O)[O-])cc1 (X10-[X2]KLLKKLL-NH2)" value_type=MHC unit_string=µg/mL recorded_number=256

###

Test: Stability in mouse serum assessed as half life incubated for 6 hrs by HPLC analysis
Assay type: ADME, cell-free
Numbered stars: 1 amine (or outer) side, 2 acyl side, 3 side chain; on linkers, the order of the positions; unused ones are H or OH. Square brackets hold non-standard residues; d marks the D form. Peptide text beside a SMILES is read from it. * marks the point of attachment. X3 = N[C@@H](Cc1ccccc1)CN(CC(=O)[*:2])[*:1]; Tos = Cc1ccc(S(=O)(=O)*)cc1
Value Type: half-life (h)

compound="Cc1ccc(S(=O)(=O)N(CC(=O)N[C@@H](CCCCN)C(=O)N[C@@H](CC(C)C)C(=O)N[C@@H](CC(C)C)C(=O)N[C@@H](CCCCN)C(=O)N[C@@H](CCCCN)C(=O)N[C@@H](CC(C)C)C(=O)N[C@@H](CC(C)C)C(N)=O)C[C@@H](N)Cc2ccccc2)cc1 (Tos-[X3]KLLKKLL-NH2)" recorded_number=6.97
